- Tested on: MS2 coat protein
- Method Notes: apparent Kd, MS2 coat protein; higher = weaker binding; RNA-MaP array; FMN 200 µM where present
- Condition Description: ligand present: flavin mononucleotide; designed as: OFF switch for flavin mononucleotide
Measured apparent Kd by item
# unit: nM | format: bare number

Worked examples follow.
{"Item Sequence": "GUUGUACGAGGAUAUACAUGAGGAUCACCCAUGUGUGUUGUGGGCGACGUACGUUUAUGUAGAAGGCGUGCGGC", "Recorded Result": 115}
{"Item Sequence": "CCCGACCUGAAGUCGAUACGGAGGAGAAGGCGCCUCCUGGGUCCACAUGAGGAUCACCCAUGUGGCGAGGAUAUCCUCAGUUUU", "Recorded Result": 73.7}
{"Item Sequence": "GUCAGCUCGUGAGGAUAUACAACACUGCUUUGGCAGUGUAUUAAGAUCACAUGAGGAUCACCCAUGUAGAAGGCACGAGCUGAU", "Recorded Result": 228}
{"Item Sequence": "CAAAAGCUAGGAUAUGCCAAUUGUUCCUUAAGUCAAAAUAAACAUGAGGAUCACCCAUGUAGAAGGAGCCCAAC", "Recorded Result": 19.8}
{"Item Sequence": "AAGGUGUUAGGAUAUCGUAGUUUGUGGCAGACGGGAUUUUGCGAGAAGGAACAUGAGGAUCACCCAUGUCGGAU", "Recorded Result": 28.2}
{"Item Sequence": "AAGAAGUCAGGAUAUCCAUGGCGGCACUUGCGUGGUGGCGUGGAGAAGGGACAUGAGGAUCACCCAUGUAAAGA", "Recorded Result": 35.8}

Q) Please look up its apparent Kd: CAUUUACAUGAGGAUCACCCAUGUGAGGAUAUGGAAUGGUUCAUUGUCUGACCUCCUUCUAGAAGGCACAUCUC
A) 30.5
